IC50 values by entry
- study.system: Collagenase 3 (Homo sapiens)
- measurement.description: In vitro inhibitory activity against human recombinant matrix metalloprotease-13 (collagenase-3)
Field format: number, assumed nM, no unit text.

Observe how each entry below is paired with its result.
CCCCOc1ccc(S(=O)(=O)N2C[C@@H](NS(C)(=O)=O)C[C@@H]2C(=O)NO)cc1; 0.7
CCCN(C(=O)[C@H](C)O)[C@H]1C[C@H](C(=O)NO)N(S(=O)(=O)c2ccc(OC)cc2)C1; 1
CCCOc1ccc(S(=O)(=O)N2C[C@@H](N3CCCC3)C[C@@H]2C(=O)NO)cc1; 1
CCCCOc1ccc(S(=O)(=O)N2C[C@@H](NC(=O)[C@@H](O)C(C)C)C[C@@H]2C(=O)NO)cc1; 0.8
COc1ccc(S(=O)(=O)N2C[C@@H](N3CCS(=O)(=O)CC3)C[C@@H]2C(=O)NO)cc1; 1
CN1CC(=O)N([C@H]2C[C@H](C(=O)NO)N(S(=O)(=O)c3ccc(Oc4ccncc4)cc3)C2)C1=O; 0.7

IN: I'm curious: which IC50 was measured for COc1ccc(S(=O)(=O)N2C[C@@H](N(Cc3cccnc3)S(C)(=O)=O)C[C@@H]2C(=O)NO)cc1 tested on Collagenase 3 (Homo sapiens)?
OUT: 1

IN: Would you kindly repeat that for CCCN([C@H]1C[C@H](C(=O)NO)N(S(=O)(=O)c2ccc(OC)cc2)C1)S(C)(=O)=O ?
OUT: 0.8

* * *

- study.system: Stromelysin-1 (Homo sapiens)
- Sequence (P08254 whole entry): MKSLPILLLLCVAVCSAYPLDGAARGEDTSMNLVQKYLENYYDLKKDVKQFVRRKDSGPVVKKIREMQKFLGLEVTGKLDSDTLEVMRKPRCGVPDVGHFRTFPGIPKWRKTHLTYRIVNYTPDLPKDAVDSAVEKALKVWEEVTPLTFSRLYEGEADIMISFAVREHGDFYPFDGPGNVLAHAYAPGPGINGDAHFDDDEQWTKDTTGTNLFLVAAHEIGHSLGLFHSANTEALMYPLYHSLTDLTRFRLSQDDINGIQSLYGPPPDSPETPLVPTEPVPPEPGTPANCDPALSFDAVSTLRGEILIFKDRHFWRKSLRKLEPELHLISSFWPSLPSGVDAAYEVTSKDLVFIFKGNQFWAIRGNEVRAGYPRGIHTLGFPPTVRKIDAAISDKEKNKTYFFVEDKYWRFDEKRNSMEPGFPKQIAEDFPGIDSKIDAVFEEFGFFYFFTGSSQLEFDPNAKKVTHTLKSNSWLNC
- measurement.description: In vitro inhibitory activity against matrix metalloprotease -3 (stromelysin)
observed.property: IC50 (nM)
Field format: number, assumed nM, no unit text.

Observe how each entry below is paired with its result.
CCCOc1ccc(S(=O)(=O)N2C[C@@H](N3CCCS3(=O)=O)C[C@@H]2C(=O)NO)cc1; 8
CN1CC(=O)N([C@H]2C[C@H](C(=O)NO)N(S(=O)(=O)c3ccc(Oc4ccccc4)cc3)C2)C1=O; 6

Now look at this one.
IN: What value of measured IC50 is listed for CC(C)COc1ccc(S(=O)(=O)N2C[C@@H](N3C(=O)CN(C)C3=O)C[C@@H]2C(=O)NO)cc1 ?
OUT: 3

* * *

IC50 values by entry
- study.system: Stromelysin-1 (Homo sapiens)
- measurement.description: In vitro inhibitory activity against matrix metalloprotease -3 (stromelysin)
Field format: number, assumed µM, no unit text.

Observe how each entry below is paired with its result.
CCCOc1ccc(S(=O)(=O)N2C[C@@H](N3CCOCC3)C[C@@H]2C(=O)NO)cc1; 0.007
O=C(NO)[C@H]1C[C@H](N2CCOCC2)CN1S(=O)(=O)c1ccc(Oc2ccccc2)cc1; 0.007
CN1CC(=O)N([C@H]2C[C@H](C(=O)NO)N(S(=O)(=O)c3ccc(Oc4ccncc4)cc3)C2)C1=O; 0.011
O=C(NO)[C@H]1C[C@H](N2CCCC2)CN1S(=O)(=O)c1ccc(Oc2ccccc2)cc1; 0.005
COc1ccc(S(=O)(=O)N2C[C@@H](N)C[C@@H]2C(=O)NO)cc1; 0.023

IN: I'm curious: which IC50 was measured for COc1ccc(S(=O)(=O)N2C[C@@H](N3CCOCC3)C[C@@H]2C(=O)NO)cc1 tested on Stromelysin-1 (Homo sapiens)?
OUT: 0.014

IN: Would you kindly repeat that for CCCCOc1ccc(S(=O)(=O)N2C[C@@H](NS(=O)(=O)c3cn(C)cn3)C[C@@H]2C(=O)NO)cc1 ?
OUT: 0.006

IN: Would you kindly repeat that for CCCN([C@H]1C[C@H](C(=O)NO)N(S(=O)(=O)c2ccc(OC)cc2)C1)S(C)(=O)=O ?
OUT: 0.01

IN: Would you kindly repeat that for CCCN(C(=O)[C@@H](O)CCc1ccccc1)[C@H]1C[C@H](C(=O)NO)N(S(=O)(=O)c2ccc(OC)cc2)C1 ?
OUT: 0.012

IN: Would you kindly repeat that for CCCOc1ccc(S(=O)(=O)N2C[C@@H](NC(=O)COC)C[C@@H]2C(=O)NO)cc1 ?
OUT: 0.03

IN: Would you kindly repeat that for CCCCOc1ccc(S(=O)(=O)N2C[C@@H](N)C[C@@H]2C(=O)NO)cc1 ?
OUT: 0.008

* * *

- study.system: UniProtKB P45452
- measurement.description: In vitro inhibitory activity against human recombinant matrix metalloprotease-13 (collagenase-3)
observed.property: pIC50
Note on units: pIC50 is unitless, being -log10 of a concentration expressed in mol/L.

CCCN1CC(=O)N([C@H]2C[C@H](C(=O)NO)N(S(=O)(=O)c3ccc(OCCOC)cc3)C2)C1=O; 8.70

IN: What value of measured pIC50 is listed for CCCN[C@H]1C[C@H](C(=O)NO)N(S(=O)(=O)c2ccc(OC)cc2)C1 ?
OUT: 8.30

IN: Would you kindly repeat that for COc1ccc(S(=O)(=O)N2C[C@@H](NS(C)(=O)=O)C[C@@H]2C(=O)NO)cc1 ?
OUT: 8.70

IN: Would you kindly repeat that for COc1ccc(S(=O)(=O)N2C[C@@H](N(Cc3cccnc3)C(=O)C(C)C)C[C@@H]2C(=O)NO)cc1 ?
OUT: 7.77

* * *

pIC50 values by entry
Target chain: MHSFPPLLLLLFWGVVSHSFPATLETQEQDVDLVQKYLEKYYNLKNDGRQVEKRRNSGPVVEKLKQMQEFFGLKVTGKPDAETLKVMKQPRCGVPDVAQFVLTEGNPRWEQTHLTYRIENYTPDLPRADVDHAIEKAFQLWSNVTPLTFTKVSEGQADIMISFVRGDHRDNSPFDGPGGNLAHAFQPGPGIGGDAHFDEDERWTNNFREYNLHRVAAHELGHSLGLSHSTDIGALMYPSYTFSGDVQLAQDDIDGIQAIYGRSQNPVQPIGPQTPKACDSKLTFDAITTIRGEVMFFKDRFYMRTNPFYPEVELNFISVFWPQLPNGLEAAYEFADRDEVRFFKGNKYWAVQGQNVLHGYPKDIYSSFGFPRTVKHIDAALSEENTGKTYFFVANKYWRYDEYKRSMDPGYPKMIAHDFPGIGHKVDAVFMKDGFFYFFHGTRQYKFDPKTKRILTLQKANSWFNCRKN
Note on units: pIC50 is unitless, being -log10 of a concentration expressed in mol/L.

Observe how each entry below is paired with its result.
CCCOc1ccc(S(=O)(=O)N2C[C@@H](N3CCCS3(=O)=O)C[C@@H]2C(=O)NO)cc1; 7.00
CCCN1CC(=O)N([C@H]2C[C@H](C(=O)NO)N(S(=O)(=O)c3ccc(OCCOC)cc3)C2)C1=O; 5.60
CN1CC(=O)N([C@H]2C[C@H](C(=O)NO)N(S(=O)(=O)c3ccc(Oc4ccncc4)cc3)C2)C1=O; 6.22
CCCCOc1ccc(S(=O)(=O)N2C[C@@H](N3C(=O)NC(SC)C3=O)C[C@@H]2C(=O)NO)cc1 (stereo partly drawn); 6.12
COc1ccc(S(=O)(=O)N2C[C@@H](NC(=O)[C@H](C)OCc3ccccc3)C[C@@H]2C(=O)NO)cc1; 6.85
CCOc1ccc(S(=O)(=O)N2C[C@@H](N3C(=O)CN(C)C3=O)C[C@@H]2C(=O)NO)cc1; 6.24

Now look at this one.
IN: What value of measured pIC50 is listed for CN1CC(=O)N([C@H]2C[C@H](C(=O)NO)N(S(=O)(=O)c3ccc(Oc4ccccc4)cc3)C2)C1=O ?
OUT: 7.68
